From: patent US4874752A

# MEASURED_TARGET: protocollagen-proline hydroxylase (Gallus gallus, UniProt P16924)
# Construct: partially purified enzyme preparation obtained from chick embryos; from tissue; host or cells: chick embryos (partially purified enzyme)
# Sequence (P16924 whole entry): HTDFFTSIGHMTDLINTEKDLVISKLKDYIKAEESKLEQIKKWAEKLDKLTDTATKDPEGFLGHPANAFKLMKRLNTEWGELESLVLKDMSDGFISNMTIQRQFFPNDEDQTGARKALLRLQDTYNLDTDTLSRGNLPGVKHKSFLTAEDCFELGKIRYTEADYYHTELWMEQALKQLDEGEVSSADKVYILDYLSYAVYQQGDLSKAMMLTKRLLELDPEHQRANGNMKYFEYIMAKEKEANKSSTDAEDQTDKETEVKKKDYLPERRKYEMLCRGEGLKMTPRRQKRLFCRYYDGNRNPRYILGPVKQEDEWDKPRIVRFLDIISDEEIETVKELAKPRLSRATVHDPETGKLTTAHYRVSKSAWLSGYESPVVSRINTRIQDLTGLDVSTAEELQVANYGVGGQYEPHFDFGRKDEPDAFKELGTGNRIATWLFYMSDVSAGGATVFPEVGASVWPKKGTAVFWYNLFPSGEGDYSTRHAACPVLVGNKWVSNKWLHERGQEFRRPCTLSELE
# Sequence (P09102 23-515 partner): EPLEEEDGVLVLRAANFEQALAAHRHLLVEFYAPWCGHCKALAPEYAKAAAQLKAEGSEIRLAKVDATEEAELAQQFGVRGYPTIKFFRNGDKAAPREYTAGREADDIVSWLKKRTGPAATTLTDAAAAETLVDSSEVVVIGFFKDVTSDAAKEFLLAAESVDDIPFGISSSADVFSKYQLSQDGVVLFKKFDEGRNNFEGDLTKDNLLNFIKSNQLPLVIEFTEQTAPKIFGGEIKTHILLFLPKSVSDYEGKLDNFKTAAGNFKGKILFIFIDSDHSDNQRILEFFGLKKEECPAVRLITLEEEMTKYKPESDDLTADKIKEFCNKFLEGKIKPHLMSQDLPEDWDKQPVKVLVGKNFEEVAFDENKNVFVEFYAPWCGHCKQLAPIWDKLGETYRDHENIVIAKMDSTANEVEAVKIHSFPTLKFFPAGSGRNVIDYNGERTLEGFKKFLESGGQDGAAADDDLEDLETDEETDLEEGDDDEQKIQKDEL
# TEST_DETAILS: Inhibitory activity of protocollagen-proline hydroxylase
# Type: biochemical, chick embryos
# EXPERIMENTAL_CONDITIONS: 20 μM
QUANTITY_MEASURED: inhibition at 20 µM (%)

| COMPOUND | QUANTITY_MEASURED | REPORTED |
| --- | --- | --- |
| COC1=C(OC)C(=O)C(CCOc2ccc(CC(=O)O)cc2)=C(C)C1=O | inhibition at 20 µM | 100 |

1: COC1=C(OC)C(=O)C(CCOc2ccc(/C=C/C(=O)O)cc2)=C(C)C1=O
2: COC(=O)/C=C/C=C/C=C/C=C/C1=C(C)C(=O)C(OC)=C(OC)C1=O
Field: entry with larger inhibition at 20 µM (options 1 / 2 ). Mark your answer with the label of the selected entry.
1
(1: 100%, 2: 67%)

---

# MEASURED_TARGET: protocollagen-proline hydroxylase (Gallus gallus)
# Construct: partially purified enzyme preparation obtained from chick embryos; from tissue; host or cells: chick embryos (partially purified enzyme)
# TEST_DETAILS: Inhibitory activity of protocollagen-proline hydroxylase
# Type: biochemical, chick embryos
# EXPERIMENTAL_CONDITIONS: 20 μM
# From the text: Determination of this inhibitory activity was made by the method of R. E. Rhoads et al. [Methods in Enzymology XVII B, 306 (1971)] using a partially purified enzyme preparation obtained from chick embryos in accordance with the methods of K. I. Kivirriko et al. and J. Halme et al. [J. Biol, Chem. 242, 4007 (1967) and Biochim. Biophys. Acta 198, 460 (1967)] and, as a substrate, (Pro-Pro-Gly)5.4H2 O[prepared by the Protein Research Foundation, Osaka]. […]
QUANTITY_MEASURED: inhibition at 20 µM (%)

| MOLECULE | MEASURED_TARGET | UNIT_NAME | REPORTED |
| --- | --- | --- | --- |
| COC1=C(OC)C(=O)C(COc2ccc(C(C)C(=O)O)cc2)=C(C)C1=O (stereo not drawn) | protocollagen-proline hydroxylase (Gallus gallus) | % | 100 |

a: COC1=C(OC)C(=O)C(CN2CCOCC2)=C(C)C1=O
b: COC1=C(OC)C(=O)C(CCC(=O)NCC(=O)O)=C(C)C1=O [m:0, n:2, Z:COGly]
Parameter metric = inhibition at 20 µM. Return the lower-valued option from a and b . Mark your answer with the label of the selected entry.
b

1: COC1=C(OC)C(=O)C(CCCCCCCCCC(=O)N[C@@H](CCCCN)C(=O)O)=C(C)C1=O [m:0, n:9, Z:COLys]
2: COC1=C(OC)C(=O)C(CCCCCCCCCC(=O)N[C@@H](CCSC)C(=O)O)=C(C)C1=O [m:0, n:9, Z:COMet]
Parameter metric = inhibition at 20 µM. Return the lower-valued option from 1 and 2 . Mark your answer with the label of the selected entry.
1

I: COC1=C(OC)C(=O)C(CCC(=O)N2CCC[C@H]2C(=O)O)=C(C)C1=O [m:0, n:2, Z:COPro]
II: COC1=C(OC)C(=O)C(CCCCCCCCCC(=O)N[C@@H](Cc2c[nH]c3ccccc23)C(=O)O)=C(C)C1=O [m:0, n:9, Z:COTrp]
Parameter metric = inhibition at 20 µM. Return the lower-valued option from I and II . Mark your answer with the label of the selected entry.
II
(II: 15%, I: 35%)

A: COC1=C(OC)C(=O)C(CCC(=O)N[C@@H](Cc2ccc(O)cc2)C(=O)O)=C(C)C1=O [m:0, n:2, Z:COTyr]
B: COC1=C(OC)C(=O)C(/C=C/C(C)=O)=C(C)C1=O [drawing 26]
Field: entry with larger inhibition at 20 µM (options A / B ). Mark your answer with the label of the selected entry.
B
(B: 92%, A: 35%)
